Ratio by entry:
# PROTOCOL NOTES: Ratio of oxytocic potency in rat uterus to antidiuretic activity in iv dosed hydrated rat anesthetized with ethanol
Positions of bridges follow the written chain, without caps; N, C: chain ends. Non-standard residues stand in square brackets, D forms with d. Residues, ends and D or L forms follow the SMILES beside them. hSer = N[C@@H](CCO)C(=O)O
MEASURED QUANTITY: Ratio

- CC[C@H](C)[C@@H]1NC(=O)[C@H](Cc2ccc(O)cc2)NC(=O)[C@@H](N)CSSC[C@@H](C(=O)N2CCC[C@H]2C(=O)N[C@@H](CC(C)C)C(=O)NCC(N)=O)NC(=O)[C@H](CC(N)=O)NC(=O)[C@H](CCO)NC1=O (H-CYI[hSer]NCPLG-NH2; disulfide 1-6): 520
- CC[C@H](C)[C@@H]1NC(=O)[C@H](Cc2ccc(O)cc2)NC(=O)[C@@H](N)CSSC[C@@H](C(=O)N2CCC[C@H]2C(=O)N[C@@H](CC(C)C)C(=O)NCC(N)=O)NC(=O)[C@H](CC(N)=O)NC(=O)[C@H](CO)NC1=O (H-CYISNCPLG-NH2; disulfide 1-6): 80
- CC[C@H](C)[C@@H]1NC(=O)[C@H](Cc2ccc(O)cc2)NC(=O)[C@@H](N)CSSC[C@@H](C(=O)N2CCC[C@H]2C(=O)N[C@@H](CC(C)C)C(=O)NCC(N)=O)NC(=O)[C@H](CC(N)=O)NC(=O)[C@H](CC(N)=O)NC1=O (H-CYINNCPLG-NH2; disulfide 1-6): 929
- CC[C@H](C)[C@@H]1NC(=O)[C@H](Cc2ccc(O)cc2)NC(=O)[C@@H](N)CSSC[C@@H](C(=O)N2CCC[C@H]2C(=O)N[C@@H](CC(C)C)C(=O)NCC(N)=O)NC(=O)[C@H](CC(N)=O)NC(=O)[C@H]([C@@H](C)O)NC1=O (H-CYITNCPLG-NH2; disulfide 1-6): 510
